System: S. MRSA
measurement.notes: microbe, parasite or virus in culture
Assay type: cell-based
test.context: Staphylococcus aureus, MRSA, 30 μM; read-out: S. MRSA 30 μM (growth inhibition)
Items are presented alongside their recorded inhibition at 30 µM.
readout.kind: inhibition at 30 µM (%)

>  <compound>
O=C1Nc2ccc(Br)cc2/C1=C1/NC(=S)N(C(Cc2ccccc2)C(=O)O)C1=O (stereo not shown)

>  <readout.kind>
inhibition at 30 µM

>  <units.label>
%

>  <endpoint.result>
-2.22

$$$$
>  <compound>
CC(C)C(C(=O)O)N1C(=O)/C(=C2/C(=O)Nc3ccccc32)SC1=S (stereo not shown)

>  <readout.kind>
inhibition at 30 µM

>  <units.label>
%

>  <endpoint.result>
40.6

$$$$
>  <compound>
O=C(O)C(Cc1ccccc1)N1C(=O)/C(=C\c2ccc(-c3ccc(Br)c(Cl)c3)o2)NC1=S (stereo not shown)

>  <readout.kind>
inhibition at 30 µM

>  <units.label>
%

>  <endpoint.result>
95.7

$$$$
>  <compound>
N#CNC(=O)C(Cc1ccccc1)N1C(=O)/C(=C\c2ccc(-c3cccc(Cl)c3)o2)NC1=S (stereo not shown)

>  <readout.kind>
inhibition at 30 µM

>  <units.label>
%

>  <endpoint.result>
-0.93

$$$$
>  <compound>
O=C(O)C(Cc1ccccc1)N1C(=O)/C(=C\c2ccc(-c3ccccc3)o2)NC1=S (stereo not shown)

>  <readout.kind>
inhibition at 30 µM

>  <units.label>
%

>  <endpoint.result>
-8.8

$$$$
>  <compound>
O=C1NC(=O)C(=Cc2ccc(Br)o2)C(=O)N1

>  <readout.kind>
inhibition at 30 µM

>  <units.label>
%

>  <endpoint.result>
12.6

$$$$
>  <compound>
O=C(O)C(Cc1ccccc1)N1C(=O)/C(=C\c2ccc(-c3ccc(Br)cc3)s2)NC1=S (stereo not shown)

>  <readout.kind>
inhibition at 30 µM

>  <units.label>
%

>  <endpoint.result>
91.1

$$$$
>  <compound>
COc1ccc(N2C(=O)/C(=C/c3ccc(Br)s3)C(=O)NC2=S)cc1

>  <readout.kind>
inhibition at 30 µM

>  <units.label>
%

>  <endpoint.result>
42.6

$$$$
>  <compound>
CCOC(=O)C(Cc1ccccc1)N1C(=O)/C(=C\c2ccc(-c3ccc(Cl)c(Cl)c3)o2)NC1=S (stereo not shown)

>  <readout.kind>
inhibition at 30 µM

>  <units.label>
%

>  <endpoint.result>
-2.92

$$$$
>  <compound>
O=C(O)[C@H](Cc1ccccc1)N1C(=O)/C(=C\c2ccc(-c3ccc(Cl)c(Cl)c3)o2)NC1=S

>  <readout.kind>
inhibition at 30 µM

>  <units.label>
%

>  <endpoint.result>
104

$$$$
>  <compound>
O=C(O)C(Cc1ccccc1)N1C(=O)/C(=C\c2ccc(-c3ncc(Cl)cc3Cl)o2)NC1=S (stereo not shown)

>  <readout.kind>
inhibition at 30 µM

>  <units.label>
%

>  <endpoint.result>
53

$$$$
>  <compound>
O=C1NC(=S)NC(=O)C1=Cc1ccc(-c2ccc(F)cc2)o1

>  <readout.kind>
inhibition at 30 µM

>  <units.label>
%

>  <endpoint.result>
56

$$$$
>  <compound>
O=C([O-])C(Cc1ccccc1)N1C(=O)/C(=C\c2ccc(-c3cccc(Cl)c3)o2)NC1=S.[Na+] (stereo not shown)

>  <readout.kind>
inhibition at 30 µM

>  <units.label>
%

>  <endpoint.result>
-7.41

$$$$
>  <compound>
CS(=O)(=O)NC(=O)C(Cc1ccccc1)N1C(=O)/C(=C\c2ccc(-c3ccc(Cl)c(Cl)c3)o2)NC1=S (stereo not shown)

>  <readout.kind>
inhibition at 30 µM

>  <units.label>
%

>  <endpoint.result>
58

$$$$
>  <compound>
O=C(O)[C@H](Cc1ccccc1)N1C(=O)/C(=C\c2ccc(-c3cc(Cl)cc(Cl)c3)o2)NC1=S

>  <readout.kind>
inhibition at 30 µM

>  <units.label>
%

>  <endpoint.result>
85.3

$$$$
>  <compound>
O=C(O)C(Cc1ccccc1)N1C(=O)/C(=C\c2ccc(-c3ccc(Cl)c(Cl)c3)o2)NC1=S (stereo not shown)

>  <readout.kind>
inhibition at 30 µM

>  <units.label>
%

>  <endpoint.result>
94.5

$$$$
>  <compound>
CCC(C(=O)O)N1C(=O)/C(=C\c2ccc(-c3ccc(Cl)c(Cl)c3)o2)NC1=S (stereo not shown)

>  <readout.kind>
inhibition at 30 µM

>  <units.label>
%

>  <endpoint.result>
92.9

$$$$
>  <compound>
O=C1Nc2ccccc2/C1=C1/SC(=S)N(C(Cc2ccccc2)C(=O)O)C1=O (stereo not shown)

>  <readout.kind>
inhibition at 30 µM

>  <units.label>
%

>  <endpoint.result>
47.8

$$$$
>  <compound>
O=C(O)[C@@H](Cc1ccccc1)N1C(=O)/C(=C\c2ccc(-c3ccc(Cl)c(Cl)c3)o2)NC1=S

>  <readout.kind>
inhibition at 30 µM

>  <units.label>
%

>  <endpoint.result>
103

$$$$
>  <compound>
O=C(O)CC(C(=O)O)N1C(=O)/C(=C2/C(=O)Nc3ccc(Br)cc32)SC1=S (stereo not shown)

>  <readout.kind>
inhibition at 30 µM

>  <units.label>
%

>  <endpoint.result>
-2.11

$$$$
>  <compound>
NC(=O)C(Cc1ccccc1)N1C(=O)/C(=C\c2ccc(-c3ccc(Cl)c(Cl)c3)o2)NC1=S (stereo not shown)

>  <readout.kind>
inhibition at 30 µM

>  <units.label>
%

>  <endpoint.result>
57.5

$$$$
>  <compound>
O=C(O)C(Cc1ccccc1)N1C(=O)/C(=C\c2ccc(-c3ccc(OC(F)(F)F)cc3)o2)NC1=S (stereo not shown)

>  <readout.kind>
inhibition at 30 µM

>  <units.label>
%

>  <endpoint.result>
95.2

$$$$
>  <compound>
CN1C(=O)C(Cc2ccc(-c3ccc(Cl)c(Cl)c3)o2)C(=O)N(C)C1=O

>  <readout.kind>
inhibition at 30 µM

>  <units.label>
%

>  <endpoint.result>
0

$$$$
>  <compound>
O=C(O)[C@H](Cc1ccccc1)N1C(=O)/C(=C\c2ccc(-c3cc(C(F)(F)F)ccc3Cl)o2)NC1=S

>  <readout.kind>
inhibition at 30 µM

>  <units.label>
%

>  <endpoint.result>
92.9

$$$$
>  <compound>
O=C1NC(=O)N(Cc2ccc(F)cc2)C(=O)/C1=C/c1ccc(Br)s1

>  <readout.kind>
inhibition at 30 µM

>  <units.label>
%

>  <endpoint.result>
62.2

$$$$
>  <compound>
O=C1NC(=S)N(c2cccc(Cl)c2)C(=O)/C1=C/c1ccc(-c2cc(C(=O)O)ccc2Cl)o1

>  <readout.kind>
inhibition at 30 µM

>  <units.label>
%

>  <endpoint.result>
-5.15

$$$$
>  <compound>
COc1ccc(-c2nnc(-c3ccccc3)o2)cc1S(=O)(=O)Nc1cc2c(cc1C#N)OCO2

>  <readout.kind>
inhibition at 30 µM

>  <units.label>
%

>  <endpoint.result>
-1.62

$$$$
>  <compound>
O=C(NS(=O)(=O)C(F)(F)F)C(Cc1ccccc1)N1C(=O)/C(=C\c2ccc(-c3ccc(Cl)c(Cl)c3)o2)NC1=S (stereo not shown)

>  <readout.kind>
inhibition at 30 µM

>  <units.label>
%

>  <endpoint.result>
94.5

$$$$
>  <compound>
O=C(O)C(Cc1ccccc1)N1C(=O)/C(=C\c2ccc(-c3ccc(I)cc3)o2)NC1=S (stereo not shown)

>  <readout.kind>
inhibition at 30 µM

>  <units.label>
%

>  <endpoint.result>
92.7

$$$$
>  <compound>
CN1C(=O)/C(=C/c2ccc(-c3ccc(Br)c(Cl)c3)o2)C(=O)NC1=S

>  <readout.kind>
inhibition at 30 µM

>  <units.label>
%

>  <endpoint.result>
86.8

$$$$
>  <compound>
O=C(O)C(Cc1ccccc1)N1C(=O)/C(=C\c2ccc(-c3ccc(F)cc3)s2)NC1=S (stereo not shown)

>  <readout.kind>
inhibition at 30 µM

>  <units.label>
%

>  <endpoint.result>
46.2

$$$$
>  <compound>
O=C1NC(=S)NC(=O)C1=Cc1ccc(-c2ccc(Br)c(Cl)c2)o1

>  <readout.kind>
inhibition at 30 µM

>  <units.label>
%

>  <endpoint.result>
-4.22

$$$$
>  <compound>
CC(=O)C(Cc1ccccc1)N1C(=O)/C(=C2/C(=O)Nc3cc(Cl)c(Cl)cc32)NC1=S (stereo not shown)

>  <readout.kind>
inhibition at 30 µM

>  <units.label>
%

>  <endpoint.result>
-26.3

$$$$
>  <compound>
CCOc1cccc(N2C(=O)/C(=C/c3ccc(-c4cc(C(=O)O)ccc4Cl)o3)C(=O)NC2=S)c1

>  <readout.kind>
inhibition at 30 µM

>  <units.label>
%

>  <endpoint.result>
-0.74

$$$$
